system: SNB-75 CNS; experiment: NCI-60 one-dose screen, 48 h; conditions: 10 µM unless noted
This is part of a sample that, as a whole, favours compounds with a hit. Of some 83,000 tested, about 20% had one in any assay. Active and inactive are the calls of the source. Rule for the calls: active = growth percent below 10; inactive = the rest.
Tick one outcome: active, inactive

querySmiles	labelClass
Oc1[nH]c2ccc(Cl)cc2c1N=Nc1nc(N=Nc2c(O)[nH]c3ccc(Cl)cc23)nc(N2CCCCC2)n1	inactive
CN1CCN(c2ccc(Nc3nc(NCCNC(=O)c4ccccc4)c4sccc4n3)cc2)CC1	inactive
Nn1c(=O)n(-c2cccc(C(F)(F)F)c2)c(=O)c2cc(-c3ccc(F)cc3F)ccc21	active

Query string: Check the results log: what was the call for NC(=S)n1c(=O)n(-c2cccc(C(F)(F)F)c2)c(=O)c2cc(-c3ccc(F)cc3F)ccc21 ?
Result string: active

Query string: // outcome(item) with item = CCN(CC)c1ccc(/C=N/NC(=O)c2ccc(S(N)(=O)=O)cc2)c(O)c1
Result string: inactive

Query string: Could you kindly confirm the outcome this assay logged for Cc1ccc(S(=O)(=O)NCCCNc2nccc(-c3[nH]c(-c4ccccc4)nc3-c3ccc(F)c(O)c3)n2)cc1 ?
Result string: inactive

Query string: Per the records of this test, what outcome belongs to CN(C)c1ccc(/C=N/Nc2nc(N/N=C/c3ccc(N(C)C)cc3)nc(N3CCCCC3)n2)cc1 ?
Result string: inactive

Query string: In this assay, the call recorded for Cc1ccc(-c2cc3nc(C(Cl)Cl)nc(-c4ccc(S(=O)(=O)N(C)C)cc4)n3n2)cc1 was what?
Result string: inactive

Query string: Outcome? COc1ccc(C(C)=C(c2ccc(OCCN(C)C)cc2)c2ccc(OCCN(C)C)cc2)cc1
Result string: active

// provenance: PubChem BioAssay (NCI)
